- measurement-description: Plasma concentration in Swiss outbred mouse at 48 mg/kg administered via oral gavage at 4 hrs by LC-MS analysis
- Type: ADME, organism-based
property-measured: concentration at 4 h (nM)

molecule-smiles | quantitative-result
CN(C)CCCNc1ccc(-c2ccc(F)c(Cl)c2)o1 | 132

====

- measurement-description: Plasma concentration in Swiss outbred mouse at 48 mg/kg administered via oral gavage at 1 hr by LC-MS analysis
- Type: ADME, organism-based
property-measured: concentration at 1 h (nM)

molecule-smiles | property-measured | quantitative-result
CN(C)CCCNc1ccc(-c2ccc(F)c(Cl)c2)o1 | concentration at 1 h | 693

====

- measurement-description: Plasma concentration in Swiss outbred mouse at […], iv at 24 hrs by LC-MS analysis
- Assay type: ADME, organism-based

molecule-smiles | unit-of-measure | concentration at 24 h
CN(C)CCCNc1ccc(-c2ccc(F)c(Cl)c2)o1 | nM | 22

====

- measurement-description: Plasma concentration in Swiss outbred mouse at 48 mg/kg administered via oral gavage at […] by LC-MS analysis
- Format: ADME, organism-based
property-measured: concentration at […] (nM)

molecule-smiles | unit-of-measure | quantitative-result
CN(C)CCCNc1ccc(-c2ccc(F)c(Cl)c2)o1 | nM | 171

====

- measurement-description: Plasma concentration in Swiss outbred mouse at […], iv at 10 hrs by LC-MS analysis
- Format: ADME, organism-based

molecule-smiles | concentration at 10 h
CN(C)CCCNc1ccc(-c2ccc(F)c(Cl)c2)o1 | 23 nM

====

- measurement-description: Plasma concentration in Sprague-Dawley rat at 20 mg/kg administered via oral gavage at 4 hrs by LC-MS analysis
- Assay type: ADME, organism-based

molecule-smiles | unit-of-measure | concentration at 4 h
CN(C)CCCNc1ccc(-c2ccc(F)c(Cl)c2)o1 | nM | 28

====

- measurement-description: Plasma concentration in Swiss outbred mouse at […], iv at 0.5 hrs by LC-MS analysis
- Assay type: ADME, organism-based
property-measured: concentration at 0.5 h (nM)

molecule-smiles | property-measured | unit-of-measure | quantitative-result
CN(C)CCCNc1ccc(-c2ccc(F)c(Cl)c2)o1 | concentration at 0.5 h | nM | 44

====

- measurement-description: Plasma concentration in Sprague-Dawley rat at 1 mg/kg, iv administered as 10 mins infusion measured at 2.67 hrs by LC-MS analysis
- Assay type: ADME, organism-based

molecule-smiles | unit-of-measure | concentration at 2.67 h
CN(C)CCCNc1ccc(-c2ccc(F)c(Cl)c2)o1 | nM | 20

====

- measurement-description: Plasma concentration in Swiss outbred mouse at […], iv at 0.008 hrs by LC-MS analysis
- Assay type: ADME, organism-based
property-measured: concentration at 0.008 h (nM)

molecule-smiles | quantitative-result
CN(C)CCCNc1ccc(-c2ccc(F)c(Cl)c2)o1 | 841

====

- measurement-description: Plasma concentration in Sprague-Dawley rat at 1 mg/kg, iv administered as 10 mins infusion measured at 1.17 hrs by LC-MS analysis
- Format: ADME, organism-based

molecule-smiles | concentration at 1.17 h
CN(C)CCCNc1ccc(-c2ccc(F)c(Cl)c2)o1 | 29 nM

====

- measurement-description: Plasma concentration in Swiss outbred mouse at 48 mg/kg administered via oral gavage at 7.5 hrs by LC-MS analysis
- Format: ADME, organism-based
property-measured: concentration at 7.5 h (nM)

molecule-smiles | quantitative-result
CN(C)CCCNc1ccc(-c2ccc(F)c(Cl)c2)o1 | 239

====

- measurement-description: Plasma concentration in Swiss outbred mouse at […], iv at 2 hrs by LC-MS analysis
- Assay type: ADME, organism-based

molecule-smiles | concentration at 2 h / nM
CN(C)CCCNc1ccc(-c2ccc(F)c(Cl)c2)o1 | 26
